Cited source for all entries: patent US10208065B2

# Test details: Solubility in simulated biological media (37° C., HPLC)
# Assay type: physicochemical
# Run parameters: simulated artificial gastric juice, 22 hours
Where a name gives a salt, the structure may show the parent alone.
Here the recorded Solubility (22 hours) is given for each entry.
Field format: number, assumed µg/mL, no unit text.

>  <Compound>
CN1C(=O)COc2c1cnc1ccc(Sc3nnc4c(F)cc(-c5cnn(C)c5)cn34)cc21 [Crystal form III of mesylate]

>  <Reported measurement>
12.5

$$$$
>  <Compound>
CN1C(=O)COc2c1cnc1ccc(Sc3nnc4c(F)cc(-c5cnn(C)c5)cn34)cc21 [Crystal form III of free base]

>  <Reported measurement>
43

$$$$
>  <Compound>
CN1C(=O)COc2c1cnc1ccc(Sc3nnc4c(F)cc(-c5cnn(C)c5)cn34)cc21 [Crystal form I of free base]

>  <Reported measurement>
19

$$$$

Entry CN1C(=O)COc2c1cnc1ccc(Sc3nnc4c(F)cc(-c5cnn(C)c5)cn34)cc21 [Crystal form I of phosphate] , Solubility (22 hours) reported as 135

Entry CN1C(=O)COc2c1cnc1ccc(Sc3nnc4c(F)cc(-c5cnn(C)c5)cn34)cc21 [Crystal form III of the 1,5-naphthalenedisulfonate salt] , Solubility (22 hours) reported as 30

Entry CN1C(=O)COc2c1cnc1ccc(Sc3nnc4c(F)cc(-c5cnn(C)c5)cn34)cc21 [Amorphous free base] , Solubility (22 hours) reported as 9

###

# Test details: Solubility in simulated biological media (37° C., HPLC)
# Type: physicochemical
# Run parameters: simulated artificial intestinal juice-fasting, 1 hour
Counter-ions that a name gives are not always drawn.
Note to self: values exactly at 5 µg/mL are rule met. So Solubility (1 hour) at or above 5 µg/mL is rule met, below is rule not met.

Before answering, review these 3 worked examples.
>  <Molecule>
CN1C(=O)COc2c1cnc1ccc(Sc3nnc4c(F)cc(-c5cnn(C)c5)cn34)cc21 [Crystal form III of free base]

>  <Qualitative label>
rule not met

$$$$
>  <Molecule>
CN1C(=O)COc2c1cnc1ccc(Sc3nnc4c(F)cc(-c5cnn(C)c5)cn34)cc21 [Crystal form I of free base]

>  <Qualitative label>
rule not met

$$$$
>  <Molecule>
CN1C(=O)COc2c1cnc1ccc(Sc3nnc4c(F)cc(-c5cnn(C)c5)cn34)cc21 [Amorphous free base]

>  <Qualitative label>
rule not met

$$$$

Given CN1C(=O)COc2c1cnc1ccc(Sc3nnc4c(F)cc(-c5cnn(C)c5)cn34)cc21 [Crystal form I of phosphate] , state whether its Solubility (1 hour) is at least 5 µg/mL.
rule met

Given CN1C(=O)COc2c1cnc1ccc(Sc3nnc4c(F)cc(-c5cnn(C)c5)cn34)cc21 [Crystal form III of the 1,5-naphthalenedisulfonate salt] , state whether its Solubility (1 hour) is at least 5 µg/mL.
rule met

###

# Test details: Solubility in simulated biological media (37° C., HPLC)
# Type: physicochemical
# Run parameters: simulated artificial gastric juice, 1 hour
Counter-ions that a name gives are not always drawn.
Here the recorded Solubility (1 hour) is given for each entry.
Field format: number, assumed µg/mL, no unit text.

Entry CN1C(=O)COc2c1cnc1ccc(Sc3nnc4c(F)cc(-c5cnn(C)c5)cn34)cc21 [Crystal form III of mesylate] , Solubility (1 hour) reported as 211

Entry CN1C(=O)COc2c1cnc1ccc(Sc3nnc4c(F)cc(-c5cnn(C)c5)cn34)cc21 [Crystal form I of phosphate] , Solubility (1 hour) reported as 128

Entry CN1C(=O)COc2c1cnc1ccc(Sc3nnc4c(F)cc(-c5cnn(C)c5)cn34)cc21 [Crystal form III of the 1,5-naphthalenedisulfonate salt] , Solubility (1 hour) reported as 182

Entry CN1C(=O)COc2c1cnc1ccc(Sc3nnc4c(F)cc(-c5cnn(C)c5)cn34)cc21 [Crystal form I of free base] , Solubility (1 hour) reported as 18

Entry CN1C(=O)COc2c1cnc1ccc(Sc3nnc4c(F)cc(-c5cnn(C)c5)cn34)cc21 [Amorphous free base] , Solubility (1 hour) reported as 11

Entry CN1C(=O)COc2c1cnc1ccc(Sc3nnc4c(F)cc(-c5cnn(C)c5)cn34)cc21 [Crystal form III of free base] , Solubility (1 hour) reported as 40
